target: UniProt Q13547; test: Inhibition of recombinant human HDAC1 using Ac-RHKK(Ac)-ACC as substrate by fluorometric analysis
measure-name: IC50 (µM)
Numbers only; they are read as µM.

Param readout = IC50; param system = UniProt Q13547; param query = `CC(C)(C)OC(=O)N[C@@H](CCCCCC(=O)NO)C(=O)NC1CCCC1` ; response: value
3.57

Try the compound `CC(C)(C)OC(=O)Nc1ccc(-c2cc(C(=O)NCCCCCCC(=O)NO)no2)cc1`
3.57

Now consider `O=C(CCCCCn1c2ccccc2c2ccccc21)NO` .
3.07

###

target: Protein deacetylase HDAC6 (Homo sapiens); assay: Inhibition of recombinant human HDAC6 using Ac-RHKK(Ac)-ACC as substrate by fluorometric analysis
Sequence (Q9UBN7 whole entry): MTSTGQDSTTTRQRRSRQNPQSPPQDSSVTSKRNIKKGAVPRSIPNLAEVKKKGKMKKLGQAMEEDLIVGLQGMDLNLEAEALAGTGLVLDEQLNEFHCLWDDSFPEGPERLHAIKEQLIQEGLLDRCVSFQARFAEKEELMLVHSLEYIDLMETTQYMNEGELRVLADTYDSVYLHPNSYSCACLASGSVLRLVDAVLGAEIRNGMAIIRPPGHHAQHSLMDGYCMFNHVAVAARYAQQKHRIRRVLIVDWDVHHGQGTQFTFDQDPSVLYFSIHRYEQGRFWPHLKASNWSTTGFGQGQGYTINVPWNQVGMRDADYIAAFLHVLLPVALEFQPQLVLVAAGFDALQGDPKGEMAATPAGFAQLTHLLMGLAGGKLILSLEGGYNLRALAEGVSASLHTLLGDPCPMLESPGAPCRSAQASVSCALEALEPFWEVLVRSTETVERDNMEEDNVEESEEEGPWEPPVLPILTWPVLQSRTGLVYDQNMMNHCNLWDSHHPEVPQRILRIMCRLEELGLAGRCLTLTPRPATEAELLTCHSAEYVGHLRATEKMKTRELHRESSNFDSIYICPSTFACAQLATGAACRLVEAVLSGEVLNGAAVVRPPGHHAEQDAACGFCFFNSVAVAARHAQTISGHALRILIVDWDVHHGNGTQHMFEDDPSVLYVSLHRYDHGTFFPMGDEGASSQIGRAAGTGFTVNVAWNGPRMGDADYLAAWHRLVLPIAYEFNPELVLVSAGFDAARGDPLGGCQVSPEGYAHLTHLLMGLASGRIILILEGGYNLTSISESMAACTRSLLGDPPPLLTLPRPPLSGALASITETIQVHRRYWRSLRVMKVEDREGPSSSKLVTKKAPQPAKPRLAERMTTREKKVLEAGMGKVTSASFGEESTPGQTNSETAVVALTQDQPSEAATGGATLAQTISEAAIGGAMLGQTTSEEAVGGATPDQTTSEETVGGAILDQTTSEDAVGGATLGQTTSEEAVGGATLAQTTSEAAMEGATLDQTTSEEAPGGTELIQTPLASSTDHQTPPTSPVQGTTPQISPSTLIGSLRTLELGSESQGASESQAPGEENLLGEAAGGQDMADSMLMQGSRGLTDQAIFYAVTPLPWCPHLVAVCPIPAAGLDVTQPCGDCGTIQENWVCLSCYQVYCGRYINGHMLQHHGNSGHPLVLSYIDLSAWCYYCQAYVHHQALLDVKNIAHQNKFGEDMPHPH
Listing of entries alongside the reported IC50.
Field: numeric (nM). Do not append units.

{"compound": "O=C(CCCCCn1c2ccccc2c2ccccc21)NO", "readout-unit": "nM", "assay-value": 41}

Alright, here's another compound for you.
// IC50 lookup, key: `CC(C)(C)OC(=O)N[C@@H](CCCCCC(=O)NO)C(=O)NC1CCCC1`
27

###

target: Histone deacetylase 1 (Homo sapiens, UniProt Q13547); assay: Inhibition of recombinant human HDAC1 using Cbz-Lys(TFAc)-AMC as substrate by fluorometric analysis
Sequence (Q13547 whole entry): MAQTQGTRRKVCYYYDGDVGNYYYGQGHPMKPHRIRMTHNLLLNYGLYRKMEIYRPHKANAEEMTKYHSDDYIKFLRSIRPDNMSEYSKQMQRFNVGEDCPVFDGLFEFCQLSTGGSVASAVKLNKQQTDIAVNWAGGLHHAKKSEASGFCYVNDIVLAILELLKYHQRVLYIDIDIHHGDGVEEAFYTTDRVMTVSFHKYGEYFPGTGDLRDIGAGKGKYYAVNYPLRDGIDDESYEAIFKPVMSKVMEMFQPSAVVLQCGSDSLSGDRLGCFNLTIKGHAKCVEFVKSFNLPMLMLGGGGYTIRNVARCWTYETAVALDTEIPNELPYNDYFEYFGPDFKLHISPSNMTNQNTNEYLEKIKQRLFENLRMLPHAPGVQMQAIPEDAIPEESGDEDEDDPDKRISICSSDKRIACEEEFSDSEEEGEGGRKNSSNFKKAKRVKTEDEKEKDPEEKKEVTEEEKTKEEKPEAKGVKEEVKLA
measure-name: log10(IC50) (log10 of the value in µM)
Give log10 of IC50, with IC50 taken in µM.

Endpoint output: log10(IC50) of `CC(C)(C)OC(=O)N[C@@H](CCCCCS)C(=O)NC1CCCC1` . Value?
0.24

And then `CC(C)(C)OC(=O)N[C@@H](CCCCCC(=O)NO)C(=O)NC1CCCC1` , what is it?
0.15

Subsequent entry: `CC(C)(C)OC(=O)Nc1ccc(-c2cc(C(=O)NCCCCCCC(=O)NO)no2)cc1`
-0.47

Would you mind doing `CN(C)c1ccc(C(=O)N[C@@H](CCCCCC(=O)NO)C(=O)Nc2cccc3cccnc23)cc1` as well?
-1.68

Please answer likewise for `O=C(CCCCC[C@H](NC(=O)c1cc2ccccc2[nH]1)C(=O)Nc1cccc2cccnc12)NO`
-1.32

###

molecular target: Protein deacetylase HDAC6 (Homo sapiens); assay: Inhibition of recombinant human HDAC6 at 1 uM using Boc-Lys(Ac)-AMC as substrate by fluorometric analysis
measure-name: inhibition (%)
Form entry: value (%) — number only.

Here are 5 compounds together with their reported answers.
{"compound": "O=C(O)CCCC[C@H](NC(=O)OCc1ccccc1)C(=O)NC1CCCC1", "target-under-test": "Protein deacetylase HDAC6 (Homo sapiens)", "readout-unit": "%", "inhibition": 20}
{"compound": "CC(C)(C)OC(=O)N[C@@H](CCCCO)C(=O)NC1CCCC1", "target-under-test": "Protein deacetylase HDAC6 (Homo sapiens)", "readout-unit": "%", "inhibition": 50}
{"compound": "CC(C)(C)OC(=O)N[C@@H](CCCCCS)C(=O)NC1CCCC1", "target-under-test": "Protein deacetylase HDAC6 (Homo sapiens)", "readout-unit": "%", "inhibition": 98}
{"compound": "COC(=O)CCCCC[C@H](NC(=O)OCc1ccccc1)C(=O)NC1CCCC1", "target-under-test": "Protein deacetylase HDAC6 (Homo sapiens)", "readout-unit": "%", "inhibition": 65}
{"compound": "CC(C)(C)OC(=O)N[C@@H](CCCCCO)C(=O)NC1CCCC1", "target-under-test": "Protein deacetylase HDAC6 (Homo sapiens)", "readout-unit": "%", "inhibition": 80}

Please give the measured inhibition for this compound: `CC(C)(C)OC(=O)N[C@@H](CCCCCC(=O)O)C(=O)NC1CCCC1`
45

Here is the next compound: `CC(C)(C)OC(=O)N[C@@H](CCCCCCS)C(=O)NC1CCCC1`
60

###

biological target: Protein deacetylase HDAC6 (Homo sapiens) (UniProt Q9UBN7); assay: Inhibition of recombinant human HDAC6 at 1 uM using Boc-Lys(Ac)-AMC as substrate by fluorometric analysis
Sequence (Q9UBN7 whole entry): as the sequence (Q9UBN7 whole entry) above
Entries annotated with measured inhibition
Number only, in %; omit the unit.

Example compounds with recorded inhibition:
{"compound": "CC(C)(C)OC(=O)N[C@@H](CCCCCCO)C(=O)NC1CCCC1", "readout-unit": "%", "inhibition": 3}
{"compound": "O=C(O)CCCCC[C@H](NC(=O)OCc1ccccc1)C(=O)NC1CCCC1", "readout-unit": "%", "inhibition": 40}
{"compound": "CC(C)(C)OC(=O)N[C@@H](CCCCCC(=O)NO)C(=O)NC1CCCC1", "readout-unit": "%", "inhibition": 99}

Give its inhibition value. Item: `COC(=O)CCCC[C@H](NC(=O)OC(C)(C)C)C(=O)NC1CCCC1`
40

Please answer likewise for `COC(=O)CCCCC[C@H](NC(=O)OC(C)(C)C)C(=O)NC1CCCC1`
60
